Data provenance: PubChem BioAssay (NCI)

- Test system: SR leukemia
- experimentalDetails: NCI tumour cell line growth inhibition, 48 h; in the data active = GI50 below about 0.43 µM; inactive = the rest
Your response should consist of one outcome taken from True = active, False = inactive

Query block: Give the logged outcome of this assay for the following compound: CSc1nc2c(c(=O)n1C)CN(C1CCCCC1)C(=O)C(c1ccccc1)N2 (centres undefined)
Result block: False

Query block: Hey, what did the test say about Cc1cc(Nc2cc(N3CCN(C)CC3)nc(/C=C/c3ccccc3)n2)n[nH]1 ?
Result block: True

Query block: Could you please tell me the result logged for CC(C)CCCCCCCCCCCCC(=O)NCC(=O)NC1C(O)C(O)C(Nc2ncnc3nc[nH]c23)OC1C(O)CO (centres undefined) in this assay?
Result block: True

Query block: Name the outcome recorded for O=C(NCC1CCCO1)c1ccc(NC2=C(Cl)C(=O)N(Cc3ccccc3)C2=O)cc1 (centres undefined) in the assay.
Result block: False

Query block: Dear all, I need the recorded test outcome for COc1ccc(/C=C2/SC(Nc3nc(-c4nc(NC5=NC(=O)/C(=C\c6ccc(OC)cc6)S5)sc4C)c(C)s3)=NC2=O)cc1 , thank you.
Result block: True

Query block: Hello, I am checking results. What call was entered for COc1ccc([C@@]23Oc4cc(OC)cc(OC)c4[C@]2(O)[C@H](O)[C@H](C(N)=O)[C@H]3c2ccccc2)cc1 ?
Result block: True

Query block: Could you check what this test reported for Cn1cc(-c2cnn3c(N)c(Br)c(C4CCCNC4)nc23)cn1 (centres undefined) ?
Result block: True

Query block: Record lookup: outcome of this test for COc1cc2c(c(OC)c1OC)-c1ccc(SC)c(=O)cc1[C@@H](O)CC2 ?
Result block: True

Query block: Hi, sorry to bother you, what did the test record for COC(=O)c1cc2c3ccccc3n3c2c(n1)-c1[nH]c2ccccc2c(=O)c1C3 ?
Result block: False
